Task for the reader: assign each of the following compounds its reported AC50.
Tested on: INS-1E rat beta cells, no cytokines, CellTiter-Glo ATP, 48 h
Test method notes: cytokine-free beta-cell viability effect – INS-1E rat cells, ATP luminescence, cherry pick, counter-screen for beta-cell apoptosis protection project, dose response (AID 463229)

Sample "Cc1cc(Br)cc(/C=N/NC(=O)c2ccc3c(c2)OCO3)c1O" ; AC50 observed: 7.43 µM

Sample "COc1ccccc1-[n+]1c(C)cc(/C=C2\Sc3ccccc3N2C)cc1C" ; AC50 observed: < 0.195 µM

Sample "COc1ccc(-n2c(=S)[nH]c3cc(C(=O)Nc4ccccc4OC)ccc3c2=O)cc1" ; AC50 observed: 8.24 µM

Sample "Cc1ccc2nc(-c3ccccn3)c(Nc3ccccc3C)n2c1" ; AC50 observed: 9.99 µM

Sample "N=c1c2c(n(Cc3cccc(Cl)c3)c3c1CCC3)CCCC2" ; AC50 observed: 7.28 µM

Sample "O=C(Nc1ccc(Cl)cc1)c1nc[nH]c1C(=O)NCCN(CCNC(=O)c1[nH]cnc1C(=O)Nc1ccc(Cl)cc1)CCNC(=O)c1[nH]cnc1C(=O)Nc1ccc(Cl)cc1" ; AC50 observed: 8.08 µM

Sample "COc1ccc(Cn2cc3c(-c4ccc(F)cc4)nnc-3c3cc(OC)c(OC)cc32)cc1" ; AC50 observed: 9.02 µM

Sample "O=C(Nc1cccnc1)C1(F)C(F)(F)C(F)(F)C(F)(F)C(F)(F)C1(F)F" ; AC50 observed: 3.56 µM

Sample "CN(c1ccccc1)c1ccc(/C=C/[N+](=O)[O-])cc1" ; AC50 observed: 8.01 µM

Sample "CC(=O)c1sc(NC(=O)C2(F)C(F)(F)C(F)(F)C(F)(F)C(F)(F)C2(F)F)nc1C" ; AC50 observed: 4.17 µM

Sample "Cc1cccc2nc(CSc3nc4[nH]ncc4c(=O)n3-c3cccc(Cl)c3)cc(=O)n12" ; AC50 observed: 7.35 µM

Sample "Oc1ccc(Br)cc1-c1cc(-c2ccc(Cl)cc2)n[nH]1" ; AC50 observed: 11.1 µM

Sample "O=C(Nc1cccc(S(=O)(=O)Nc2ccc(Cl)cc2)c1)c1ccc(Cl)nc1" ; AC50 observed: 4.6 µM

Sample "Cc1ccc(S(=O)(=O)N2CCN(c3ncnc4sccc34)CC2)cc1" ; AC50 observed: 8.15 µM

Sample "COC(=O)c1cc(=O)n(CCc2ccccc2F)c(=Nc2ccc(F)c(Cl)c2)s1" ; AC50 observed: 11.1 µM

Sample C1CCC(C(CC2CCCCN2)C2CCCCC2)CC1 (stereo not given) ; AC50 observed: 9.74 µM

Sample "CC(C)(C)c1cc[n+](C2=C([O-])c3ccccc3C(=O)/C2=N\S(=O)(=O)c2cccs2)cc1" ; AC50 observed: 7.44 µM

Sample "CC(=O)c1cccc(NS(=O)(=O)c2ccc(N/C=C/C(=O)c3ccc(F)cc3)cc2)c1" ; AC50 observed: 5.02 µM

Sample "CCCCSc1nc2sc3c(c2c(=O)n1-c1ccc(C)cc1)CCN(C)C3" ; AC50 observed: 22.4 µM

Sample "CC(C)N=c1cc2n(-c3ccc(Cl)cc3)c3ccccc3nc-2cc1Nc1ccc(Cl)cc1" ; AC50 observed: 6.69 µM
